- experiment: Hydrodynamic radius of micelles by dynamic light scattering
- Assay type: physicochemical
- experimental-setup: Mean ± SD, n = 5
observable: Rh (nm), hydrodynamic radius of micelles
Respond with the bare value in nm.

Reference set, count: 4
{"molecule": "C[C@@H]1CC[C@@]2(OC1)O[C@H]1C[C@H]3[C@@H]4CC=C5C[C@@H](OCCC(CO[C@@H]6OC(CO)[C@@H](O[C@H]7OC(CO)[C@@H](O)C(O)C7O)C(O)C6O)CO[C@@H]6OC(CO)[C@@H](O[C@H]7OC(CO)[C@@H](O)C(O)C7O)C(O)C6O)CC[C@]5(C)[C@H]4CC[C@]3(C)[C@@H]1[C@@H]2C (some centres unmarked)", "value": 3.86}
{"molecule": "CO[C@@H]1CC[C@@]2(C)[C@H](CC[C@@H]3[C@@H]2CC[C@]2(C)[C@@H]([C@H](C)CCC(=O)NC(CO[C@@H]4OC(CO)C(O[C@@H]5OC(CO)[C@@H](O)[C@H](O)C5O)[C@@H](O)C4O)CO[C@@H]4OC(CO)[C@@H](O[C@H]5OC(CO)[C@@H](O)[C@H](O)C5O)[C@H](O)C4O)CC[C@@H]32)C1 (some centres unmarked)", "value": 3.22}
{"molecule": "CO[C@@H]1CC[C@@]2(C)[C@H](CC[C@@H]3[C@@H]2CC[C@]2(C)C(C(C)CCCC(CO[C@@H]4OC(CO)C(O[C@@H]5OC(CO)[C@@H](O)[C@H](O)C5O)[C@@H](O)C4O)CO[C@@H]4OC(CO)[C@@H](O[C@H]5OC(CO)[C@@H](O)[C@H](O)C5O)[C@H](O)C4O)CC[C@@H]32)C1 (some centres unmarked)", "value": 3.27}
{"molecule": "CCCCCCCCCCCCO[C@@H]1O[C@H](CO)[C@@H](O[C@H]2O[C@H](CO)[C@@H](O)[C@H](O)[C@H]2O)[C@H](O)[C@H]1O [DDM, dodecyl-β-D-maltoside, reference compound]", "value": 3.42}

Query molecule follows.
Please list Rh (nm), hydrodynamic radius of micelles recorded for the molecule CO[C@@H]1CC[C@@]2(C)[C@H](CC[C@@H]3[C@@H]2CC[C@]2(C)[C@@H]([C@H](C)CCCOCC(C)(CO[C@@H]4OC(CO)C(O[C@@H]5OC(CO)[C@@H](O)[C@H](O)C5O)[C@@H](O)C4O)CO[C@@H]4OC(CO)[C@@H](O[C@H]5OC(CO)[C@@H](O)[C@H](O)C5O)[C@H](O)C4O)CC[C@@H]32)C1 (some centres unmarked)
3.32
